Ref: ChEMBL document CHEMBL4706522

Molecular target: 5-hydroxytryptamine receptor 1A (Homo sapiens)
Sequence (P08908 whole entry): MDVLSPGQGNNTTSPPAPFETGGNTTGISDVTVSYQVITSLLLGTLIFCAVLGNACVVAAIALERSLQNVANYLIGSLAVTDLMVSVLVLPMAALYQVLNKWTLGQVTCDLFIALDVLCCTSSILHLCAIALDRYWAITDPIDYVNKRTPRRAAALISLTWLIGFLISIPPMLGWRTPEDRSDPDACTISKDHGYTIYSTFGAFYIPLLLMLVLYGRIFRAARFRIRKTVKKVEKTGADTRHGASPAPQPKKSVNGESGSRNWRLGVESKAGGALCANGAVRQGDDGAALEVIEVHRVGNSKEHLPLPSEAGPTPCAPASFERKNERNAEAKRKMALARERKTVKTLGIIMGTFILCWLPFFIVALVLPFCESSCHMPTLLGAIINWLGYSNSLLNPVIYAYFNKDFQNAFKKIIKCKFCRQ
Test: Agonist activity at 5-HT1A receptor (unknown origin) preincubated for 60 mins followed by addition of Eu-cAMP and measured after 60 mins by plate reader method
Type: functional
Conditions: read-out: EC50
Value kind: pEC50
Note on pEC50: it is the negative log10 of concentration, concentration in mol/L.

Consider the molecule O=C1COc2ccccc2N1CCCCN1CCN(c2cccc3sccc23)CC1 and give its measured pEC50. 9.29

* * *

Biological target: 5-hydroxytryptamine receptor 1A (Homo sapiens)
Experiment: Agonist activity at 5-HT1A receptor (unknown origin) preincubated for 60 mins followed by addition of Eu-cAMP and measured after 60 mins by plate reader method
Type: functional
Conditions: read-out: pEC50 (converted)
Hi! Just check whether EC50 is below 1 nM. Below gives T, equal or above gives F.

Here are 2 compounds together with their reported answers.
- Smiles record: "O=C1NCC(=O)N(CCCCN2CCN(c3cccc4sccc34)CC2)c2cc(F)ccc21"
  Qualitative label: "F"
- Smiles record: "O=c1[nH]c(=O)n(CCCCN2CCN(c3cccc4sccc34)CC2)c2ccccc12"
  Qualitative label: "F"

Lab log: compare recorded EC50 with 1 nM; is it strictly lower for COc1ccc2ncc(=O)n(CCCCN3CCN(c4cccc5sccc45)CC3)c2c1 ? F

Lab log: compare recorded EC50 with 1 nM; is it strictly lower for Nc1ccc2c(c1)N(CCCCN1CCN(c3cccc4sccc34)CC1)S(=O)(=O)CC2 ? T

Lab log: compare recorded EC50 with 1 nM; is it strictly lower for CN1CC(=O)N(CCCCN2CCN(c3cccc4sccc34)CC2)c2ccccc2C1=O ? F

Lab log: compare recorded EC50 with 1 nM; is it strictly lower for O=S1(=O)CCc2ccc(O)cc2N1CCCCN1CCN(c2cccc3sccc23)CC1 ? F

* * *

Molecular target: 5-hydroxytryptamine receptor 2A (Homo sapiens)
Sequence (P28223 whole entry): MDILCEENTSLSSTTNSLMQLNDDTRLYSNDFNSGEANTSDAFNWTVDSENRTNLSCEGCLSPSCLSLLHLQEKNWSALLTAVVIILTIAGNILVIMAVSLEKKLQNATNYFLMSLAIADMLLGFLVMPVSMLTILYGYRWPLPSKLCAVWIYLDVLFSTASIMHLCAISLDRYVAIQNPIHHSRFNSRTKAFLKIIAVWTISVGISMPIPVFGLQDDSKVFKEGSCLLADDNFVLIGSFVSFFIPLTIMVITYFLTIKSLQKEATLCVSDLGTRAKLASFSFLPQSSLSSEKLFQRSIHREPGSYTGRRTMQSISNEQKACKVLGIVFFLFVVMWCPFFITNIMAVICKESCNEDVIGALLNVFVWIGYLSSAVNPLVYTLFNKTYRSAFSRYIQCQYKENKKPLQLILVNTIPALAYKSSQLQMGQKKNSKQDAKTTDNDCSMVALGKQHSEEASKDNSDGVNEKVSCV
Assay: Antagonist activity at 5-HT2A receptor (unknown origin) assessed as decrease in intracellular calcium flux preincubated with calcium followed by compound challenge and measured after 10 mins by FLIPR method
Type: functional, cell-based
Settings: read-out: IC50
Value kind: IC50 (nM)
Note: unit nM is implicit; provide only the numeric part.

Consider the compound O=C1COc2ccccc2N1CCCCN1CCN(c2cccc3sccc23)CC1 and give its measured IC50. 1.64
